Listed here: compounds with reported log10(Ki) for human MCH-1 receptor (Homo sapiens, UniProt Q99705).
Structures can show the parent of a compound that is named as a salt.
Response schema: value (number) is log10 of Ki in units of nM.

Documented log10(Ki) of Cn1c2c(c3ccc(N4CCN(CCc5ccc(F)cc5)CC4=O)cc31)CNCC2 [Example 11, dihydrochloride] : 0.85

Measured log10(Ki), Cn1c2c(c3ccc(N4CCN(c5ccc(C(F)(F)F)cn5)CC4=O)cc31)CNCC2 [Example 5, dihydrochloride] : 2.73

The compound listed as Cn1c2c(c3ccc(N4CCN(CCc5ccccc5)CC4=O)cc31)CCNC2 [Example 2, hydrochloride] has a reported log10(Ki) of 1.41

Looking up CC1Cc2c(c3ccc(N4CCN(CCc5ccc(Cl)cc5)CC4=O)cc3n2C)CN1.Cl (stereo not drawn) [Example 13, hydrochloride] , I see its log10(Ki) listed as 0.72

// Cn1c2c(c3ccc(N4CCN(CCc5ccccc5)CC4=O)cc31)CNCC2 [Example 6, dihydrochloride] : log10(Ki) value = 1.04

According to the records, this compound CC(=O)N1CCc2c(c3ccc(N4CCN(CCc5ccccc5)CC4=O)cc3n2C)C1 [Example 10] displays log10(Ki) of 1.76

The value of log10(Ki) measured for the compound Cn1c2c(c3ccc(N4CCN(CCc5ccccn5)CC4=O)cc31)CCNC2 [Example 3, dihydrochloride] turned out to be 1.63

For reference, reported log10(Ki) for CN1CCc2c(c3ccc(N4CCN(CCc5ccccc5)CC4=O)cc3n2C)C1 [Example 7, hydrochloride] stands at 1.08

In plain terms, Cn1c2c(c3ccc(N4CCN(CCc5ccccn5)CC4=O)cc31)CNCC2 [Example 8, dihydrochloride] has a documented log10(Ki) of 2.09

Value of measured log10(Ki) for the entry CN1CCc2c(n(C)c3cc(N4CCN(CCc5ccccc5)CC4=O)ccc23)C1 [Example 4, dihydrochloride] : 1.32

Lab book: log10(Ki) of Cn1c2c(c3ccc(N4CCN(CCc5ccc(Cl)cc5)CC4=O)cc31)CNCC2 [Example 14, dihydrochloride] noted as 0.76

The reported value for CC(=O)N1Cc2c(n(C)c3cc(N4CCN(CCc5ccc(Cl)cc5)CC4=O)ccc23)CC1C (single isomer, unassigned; enantiomer a) [Example 18] in terms of log10(Ki) is 1.69

Lookup result for Cn1c2c(c3ccc(N4CCN(CCc5ccc(F)cc5)CC4=O)cc31)C(C)(C)NCC2 [Example 16, dihydrochloride] ; measured log10(Ki): 1.23

response.value for O=C1CN(CCc2ccccc2)CCN1c1ccc2c3c([nH]c2c1)CCNC3 [Example 9, dihydrochloride] (field: log10(Ki)) = 1.23

get_value(item= CC1Cc2c(c3ccc(N4CCN(CCc5ccc(F)cc5)CC4=O)cc3n2C)CN1.Cl (stereo not drawn) [Example 12, hydrochloride] , readout=log10(Ki)) returns 0.99
